Exercise: state measured PBM binding z-score for each of the sequences provided.
Test system: VDR:RXRa (NR concentration 270 nM, RXRa partner concentration 90 nM)
ASSAY_PROCEDURE: PBM binding z-score (relative to random genomic background probes); higher = stronger binding; sequences stand for … in GC…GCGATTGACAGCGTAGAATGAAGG
Answers are plain numbers.

CHAIN_SEQUENCE: CGTCCAAGGTCATAGGAGGTCAGTGACGACAGAT
ENDPOINT_LABEL: PBM binding z-score
RECORDED_RESULT: 6.55

For each entry beneath this line, provide reported PBM binding z-score.
1. TTACCAAGGTGAGCTTAGGTCGTTGATCCAACTC
2. AATACAGGTTCACTAGGCCAGAGTAGGTACGAAT
3. TCGAGTAGGTTTGGGGCATTCAGAATGGCGTCGA

Response:
[0.561, 3.2, -0.0942]

For each entry beneath this line, provide reported PBM binding z-score.
1. TCTAGTTGGTCAACGGTCACACACTCGAAATGCG
2. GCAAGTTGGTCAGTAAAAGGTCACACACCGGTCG
3. TCATATAGGTAAGCAGGTGAAAGTCCGTAAGTTA
4. TCTATTAGTTGAAGGGCAACAGACGAGTCCGTTT
5. TCTTGTAGATCAGCAGGTTAAAAAAGCTGGCCAA
6. GATACAGGGTTAGCTAGAGGCCAGAGTATGGAAA

Response:
1: 0.848; 2: 4.11; 3: 0.388; 4: 1.01; 5: 0.495; 6: 0.139

For each entry beneath this line, provide reported PBM binding z-score.
1. CCTTACGGGTCAAGGTTATAACACGGGTGGTACG
2. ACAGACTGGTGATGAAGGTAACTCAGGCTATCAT

Response:
1: 3.51; 2: -0.35
